- ASSAY SYSTEM: SSTR2 (Homo sapiens)
- ASSAY OVERVIEW: SSTRs Gi-mediated cAMP inhibition, GloSensor, HEK293, 5 μM forskolin, 15 min room temperature (SSTR2 wild-type)
- Assay type: cell-based
- CONDITION SET: EC50, cAMP inhibition best-fit; I130A set; WT-2
- Sequence (P30874 whole entry): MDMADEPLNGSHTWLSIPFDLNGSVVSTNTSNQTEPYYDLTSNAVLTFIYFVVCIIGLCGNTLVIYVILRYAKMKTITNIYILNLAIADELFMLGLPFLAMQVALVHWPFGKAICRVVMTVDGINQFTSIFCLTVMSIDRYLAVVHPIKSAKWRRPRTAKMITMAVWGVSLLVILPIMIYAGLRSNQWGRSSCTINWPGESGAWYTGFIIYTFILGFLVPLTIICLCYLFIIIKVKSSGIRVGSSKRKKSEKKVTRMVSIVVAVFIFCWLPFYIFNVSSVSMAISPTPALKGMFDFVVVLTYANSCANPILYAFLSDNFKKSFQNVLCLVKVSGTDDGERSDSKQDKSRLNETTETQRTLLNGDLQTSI
PARAMETER: EC50 (nM)
Give bare numbers, in nM.

stdin: Report EC50 on SSTR2 (Homo sapiens) for this entry: `N#Cc1cccc(-c2ccc3ncc(-c4cc(F)cc(F)c4)c(N4CCC(N)CC4)c3c2)c1O`
stdout: 0.321

----------
- Test system: SSTR2 mutants
- ASSAY OVERVIEW: SSTRs Gi-mediated cAMP inhibition, GloSensor, HEK293, 5 μM forskolin, 15 min room temperature (SSTR2 mutants)
- Type: cell-based, human
- CONDITION SET: read-out: EC50 (best-fit value), cAMP inhibition; N276A-3 (run 3)
PARAMETER: pEC50
Numbers only, as −log10 of the molar value.

stdin: Report pEC50 on SSTR2 mutants for this entry: `N#Cc1cccc(-c2ccc3ncc(-c4cc(F)cc(F)c4)c(N4CCC(N)CC4)c3c2)c1O`
stdout: 8.75

----------
- ASSAY SYSTEM: UniProt:P30874
- ASSAY OVERVIEW: NanoBiT β-arrestin 1 recruitment assay, HEK293 (SSTR2 wild-type)
- Type: cell-based
- Set-up: Human full-length SSTR wild-type and mutant vectors were C-terminally fused; expressed in transfected cells; host or cells: HEK293
- CONDITION SET: EC50 (best-fit), WT-2 (Q126A set)
- Sequence (P30874 whole entry): as the sequence (P30874 whole entry) above
- Sequence (P49407 whole entry partner): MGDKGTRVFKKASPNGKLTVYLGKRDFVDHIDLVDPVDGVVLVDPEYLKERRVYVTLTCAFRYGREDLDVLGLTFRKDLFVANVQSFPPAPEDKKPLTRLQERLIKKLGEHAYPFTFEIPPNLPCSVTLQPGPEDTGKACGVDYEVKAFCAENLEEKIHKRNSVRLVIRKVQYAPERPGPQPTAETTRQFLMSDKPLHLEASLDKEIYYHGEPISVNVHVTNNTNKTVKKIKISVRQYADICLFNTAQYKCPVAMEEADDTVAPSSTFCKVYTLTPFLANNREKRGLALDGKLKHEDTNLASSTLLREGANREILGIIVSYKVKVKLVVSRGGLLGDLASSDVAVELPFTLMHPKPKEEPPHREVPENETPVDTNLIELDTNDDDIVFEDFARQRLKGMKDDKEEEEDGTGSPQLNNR
PARAMETER: pEC50
Answers are plain numbers, as −log10 of the molar value.

stdin: // fetch pEC50 given entry N#Cc1cccc(-c2ccc3ncc(-c4cc(F)cc(F)c4)c(N4CCC(N)CC4)c3c2)c1O [paltusotine]
stdout: 6.34

----------
- ASSAY SYSTEM: SSTR2 mutants (Homo sapiens, UniProt P30874)
- Sequence (P30874 whole entry Y205R): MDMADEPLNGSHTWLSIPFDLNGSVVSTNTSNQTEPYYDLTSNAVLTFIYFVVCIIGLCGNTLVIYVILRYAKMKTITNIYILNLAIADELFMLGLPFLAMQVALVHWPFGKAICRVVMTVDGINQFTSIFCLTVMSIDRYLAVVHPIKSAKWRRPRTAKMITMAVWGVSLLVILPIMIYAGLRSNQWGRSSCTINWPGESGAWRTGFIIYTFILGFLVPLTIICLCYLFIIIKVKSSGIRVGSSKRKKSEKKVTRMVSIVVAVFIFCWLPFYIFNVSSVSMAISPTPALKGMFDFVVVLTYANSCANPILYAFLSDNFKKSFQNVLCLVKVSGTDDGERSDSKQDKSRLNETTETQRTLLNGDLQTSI
- ASSAY OVERVIEW: SSTRs Gi-mediated cAMP inhibition, GloSensor, HEK293, 5 μM forskolin, 15 min room temperature (SSTR2 mutants)
- Assay type: cell-based
- CONDITION SET: EC50, F294Y, run 3
PARAMETER: pEC50
Answers are plain numbers, as −log10 of the molar value.

stdin: // fetch pEC50 given entry N#Cc1cccc(-c2ccc3ncc(-c4cc(F)cc(F)c4)c(N4CCC(N)CC4)c3c2)c1O [paltusotine]
stdout: 9.17

----------
- ASSAY SYSTEM: SSTR3 (Homo sapiens)
- Construct: The human full-length SSTRs and mutants were cloned into the pcDNA3.1+ vector; expressed in transfected cells; host or cells: HEK293 (ATCC, CRL-1573)
- Sequence (P32745 whole entry): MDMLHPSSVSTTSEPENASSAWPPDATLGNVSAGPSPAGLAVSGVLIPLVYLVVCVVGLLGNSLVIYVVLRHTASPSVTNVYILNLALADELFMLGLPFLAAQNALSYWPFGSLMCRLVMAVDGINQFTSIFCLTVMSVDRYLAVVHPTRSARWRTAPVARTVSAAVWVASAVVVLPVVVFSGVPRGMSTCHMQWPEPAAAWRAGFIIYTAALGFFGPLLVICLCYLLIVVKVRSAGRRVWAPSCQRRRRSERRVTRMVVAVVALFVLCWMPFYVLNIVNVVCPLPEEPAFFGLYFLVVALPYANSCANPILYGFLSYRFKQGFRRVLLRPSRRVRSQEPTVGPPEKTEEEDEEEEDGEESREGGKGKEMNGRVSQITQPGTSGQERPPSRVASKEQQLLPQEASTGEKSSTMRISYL
- ASSAY OVERVIEW: SSTRs Gi-mediated cAMP inhibition, GloSensor, HEK293 (SSTR3 wild-type)
- Format: cell-based
- CONDITION SET: best-fit; SSTR3 WT-1 (N101V set); read-out: EC50
- Procedure: The levels of the intracellular 3′, 5′-cyclic AMP (cAMP) were measured by the GloSensor cAMP assay (Promega) as described in the previous studies[28],[41] which has been widely used. The human full-length SSTRs and mutants were cloned into the pcDNA3.1+ vector with a HA signal sequence followed by a Flag tag at the N-terminus. […] Fluorescence signals were measured using the Synergy H1 microplate reader (BioTek) and the data presented are means of at least three independent experiments.
PARAMETER: pEC50
Numbers only, as −log10 of the molar value.

stdin: // fetch pEC50 given entry `N#Cc1cccc(-c2ccc3ncc(-c4cc(F)cc(F)c4)c(N4CCC(N)CC4)c3c2)c1O`
stdout: 7.20

Value source: paper PMC9944328
